# assay-summary: small-molecule microarray binders of probe aCHRDL2, primary screen, biochemical, biotinylated probe, 635/667 nm fluorescence (AID 1100)
# reported-conditions: higher = more signal
Answer criterion not met if composite z-score is under 1, and criterion met if it is 1 or more.

Hi team, for C=CCNC(=O)[C@@H]1[C@H]2C(=O)O[C@H](c3ccccc3)[C@H](c3ccccc3)N2[C@H](c2ccc(OCCO)cc2)[C@@]12C(=O)N(C(=O)OCCOC)c1ccc(C#CC3=CCCCC3)cc12 , is the recorded composite z-score at or above 1?
criterion not met

* * *

Measured z-score, listed per entry.
# experimental-system: Homeobox protein Hox-A13 (Mus musculus)
# assay-summary: inhibitors of HoxA13-DNA binding, primary screen, biochemical, fluorescence polarization, labeled oligonucleotide (AID 1185)
# reported-conditions: 15 min, higher = more signal, called active from +8 up or from −8 down
Please respond with just the number, no unit label.

Entry CCOC(=O)C[C@H]1[C@H](OC(=O)c2ccc(-c3ccccc3)cc2)[C@@H](NC(=O)c2ccc3ccccc3n2)c2cc(OCCCO)ccc2N1C(=O)c1ccccc1 , system Homeobox protein Hox-A13 (Mus musculus): what z-score was measured?
-2.05

What would you report for O=C1O[C@@H](c2ccccc2)[C@@H](c2ccccc2)N2[C@@H](c3ccccc3OCCO)[C@]3(C(=O)Nc4ccc(C#CC5=CCCCC5)cc43)[C@@H](C(=O)NC[C@H](O)c3ccccc3)[C@H]12 ?
1.62

What would you report for CC=CC(O)C1C=CC2C(=O)N(c3ccccc3)C(=O)C2N1Nc1ccc([N+](=O)[O-])cc1 (centres undefined) ?
-3.01

What would you report for CC[C@@H]1[C@H]2C3C(=O)N(CC)C(=O)C3CC(=O)[C@H]2[C@H](c2ccc(C)cc2)N1S(=O)(=O)c1ccc(C)cc1 (some centres undefined) ?
-4.84
